Task for the reader: assign each of the following compounds its reported LD50.
- measurement.notes: Lethal dose was reported
- Type: ADME

Need LD50 of `O=C(O)/C=C\C(=O)Nc1cccc(C(=O)O)c1` , thanks.
> 1000 mg/kg

// repeat for `O=C(O)c1cccc(N2C(=O)CCC2=O)c1` and report
> 1000 mg/kg

Now give it for `O=C(O)CCC(=O)Nc1cccc(C(=O)O)c1` too.
> 1000 mg/kg

----------
- study.target: Acetylcholinesterase (Torpedo californica, UniProt P04058)
- Sequence (P04058 whole entry): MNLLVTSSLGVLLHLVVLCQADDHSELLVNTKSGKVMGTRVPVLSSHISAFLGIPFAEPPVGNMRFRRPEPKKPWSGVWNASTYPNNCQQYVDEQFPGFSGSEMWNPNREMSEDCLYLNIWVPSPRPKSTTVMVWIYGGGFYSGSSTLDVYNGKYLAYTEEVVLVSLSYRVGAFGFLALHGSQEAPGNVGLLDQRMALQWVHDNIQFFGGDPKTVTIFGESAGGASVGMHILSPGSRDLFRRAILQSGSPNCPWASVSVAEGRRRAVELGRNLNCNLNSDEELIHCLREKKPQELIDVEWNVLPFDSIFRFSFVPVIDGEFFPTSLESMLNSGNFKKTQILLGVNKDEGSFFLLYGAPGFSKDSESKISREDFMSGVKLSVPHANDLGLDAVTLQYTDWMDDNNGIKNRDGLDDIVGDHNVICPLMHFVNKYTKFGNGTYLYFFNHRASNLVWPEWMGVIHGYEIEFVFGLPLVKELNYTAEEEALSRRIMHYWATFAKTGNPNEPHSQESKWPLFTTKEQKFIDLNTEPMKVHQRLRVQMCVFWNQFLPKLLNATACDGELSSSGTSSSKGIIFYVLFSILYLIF
- measurement.notes: Inhibitory activity against acetylcholinesterase (AChE) from Torpedo californica (Irreversible type of inhibition)
- Set-up: species or system Tetronarce californica
assay.metric: IC50 (nM)
Return type: number; implicit unit nM.

Using the record for `O=C(O)/C=C\C(=O)Nc1cccc(C(=O)O)c1` , report its IC50.
357

Likewise for `O=C(O)c1cccc(N2C(=O)C=CC2=O)c1` ?
256
